The next entries give measured Ki for Jack bean urease (Canavalia ensiformis, UniProt P07374).
Give just the number in µM; leave the unit off.

Here are 5 compounds together with their reported answers.
- NC(=S)NC(=O)Cc1cccc(O)c1: 4.34
- NC(=S)NC(=O)Cc1ccc(O)cc1: 2.54
- COc1ccc(CC(=O)NC(N)=S)cc1: 3.94
- Cc1ccc(CC(=O)NC(N)=S)cc1: 1.28
- NC(=S)NC(=O)Cc1ccc(O)c(O)c1: 8.21

// `NC(=S)NC(=O)Cc1ccc(F)cc1` : Ki value = 3.53

// `NC(=S)NC(=O)Cc1ccc(Cl)cc1` : Ki value = 0.04

* * *

Biological target: urease in intact H. pylori cell (Helicobacter pylori, UniProt P69996)
Construct: H. pylori urease was replaced by 25 µL of cell suspension (4.0 × 10^7 CFU/mL); endogenous in cells; host or cells: intact H. pylori ATCC 43504 cells
Experiment: Urease inhibition in intact H. pylori cell (indophenol method)
Format: cell-based
Reported IC50 by item:
Please append the unit to your numeric answer.

- Cc1ccc(CC(=O)NC(N)=S)cc1: 35.7 µM

// `COc1ccc(CC(=O)NC(N)=S)cc1` : IC50 value = 98.3 µM

// `NC(=S)NC(=O)Cc1ccc(Br)cc1` : IC50 value = 189 µM

// `NC(=S)NC(=O)Cc1ccc(Cl)cc1` : IC50 value = 3.86 µM

// `NC(=S)NC(=O)Cc1cccc(O)c1` : IC50 value = 108 µM

// `NC(=S)NC(=O)Cc1ccc(F)cc1` : IC50 value = 93.6 µM

* * *

Biological target: H. pylori urease (Helicobacter pylori)
Construct: endogenous in cells; host or cells: H. pylori ATCC 43504; sonicated, supernatant desalted on Sephadex G-25 (crude extract)
Test: Urease inhibition, extracted H. pylori urease (indophenol method)
Type: biochemical
Details: extracted H. pylori urease; read-out: IC50 Extracted urease
Experimental: For urease inhibition assays, 50 mL broth cultures (2.0 × 10^8 CFU/mL) were centrifuged (5000×g, 4 °C) to collect the bacteria, and after washing twice with phosphate-buffered saline (pH 7.4), the H. pylori precipitation was stored at –80 °C for 8 h, and then was returned to room temperature, and after addition of 3 mL of distilled water and protease inhibitors, sonication was performed for 60 s. […]
readout_label: IC50 (µM)
Give just the number in µM; leave the unit off.

IC50 of CC(=O)NO [AHA, acetohydroxamic acid, reference compound] , assay on H. pylori urease (Helicobacter pylori), is 27.2

* * *

Biological target: H. pylori urease (Helicobacter pylori, UniProt P69996)
Construct: endogenous in cells; host or cells: H. pylori ATCC 43504; sonicated, supernatant desalted on Sephadex G-25 (crude extract)
Sequence (P14916 whole entry): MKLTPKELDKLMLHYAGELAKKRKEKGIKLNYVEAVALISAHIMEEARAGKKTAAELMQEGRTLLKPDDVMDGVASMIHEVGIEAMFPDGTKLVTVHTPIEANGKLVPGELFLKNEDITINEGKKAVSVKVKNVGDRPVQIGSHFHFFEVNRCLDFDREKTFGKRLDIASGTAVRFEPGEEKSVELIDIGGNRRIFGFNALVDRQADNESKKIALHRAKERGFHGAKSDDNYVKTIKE
Sequence (P69996 whole entry): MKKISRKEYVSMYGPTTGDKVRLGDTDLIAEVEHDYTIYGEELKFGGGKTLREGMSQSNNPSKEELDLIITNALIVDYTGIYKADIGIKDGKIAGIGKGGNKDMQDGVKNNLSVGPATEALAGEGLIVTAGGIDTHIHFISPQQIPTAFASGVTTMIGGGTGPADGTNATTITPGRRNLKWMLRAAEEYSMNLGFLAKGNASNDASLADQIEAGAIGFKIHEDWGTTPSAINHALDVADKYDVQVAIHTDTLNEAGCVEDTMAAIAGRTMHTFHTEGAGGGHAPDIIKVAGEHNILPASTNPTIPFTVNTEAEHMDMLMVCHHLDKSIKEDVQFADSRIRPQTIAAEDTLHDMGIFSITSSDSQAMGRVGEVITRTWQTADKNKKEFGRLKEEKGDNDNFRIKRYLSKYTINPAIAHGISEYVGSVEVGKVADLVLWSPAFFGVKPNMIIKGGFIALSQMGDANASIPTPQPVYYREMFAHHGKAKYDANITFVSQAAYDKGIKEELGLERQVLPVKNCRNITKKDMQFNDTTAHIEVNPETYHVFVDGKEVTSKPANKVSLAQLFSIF
Assay: Urease inhibition, extracted H. pylori urease (indophenol method)
Type: biochemical
Settings: IC50 Extracted urease, extracted H. pylori urease
pIC50: −log10 of the molar value.
Decide using pIC50: a value greater than or equal to 4 is True, a smaller one is False.

For orientation, consider the following solved cases.
• NC(=S)NC(=O)Cc1ccc(F)cc1 [b23] = True
• COc1ccc(CC(=O)NC(N)=S)cc1OC [b10] = True
• NC(=S)NC(=O)Cc1ccccc1F [b6] = True
• COc1ccc(CC(=O)NC(N)=S)cc1 [b11] = True
• NC(=S)NC(=O)C(c1ccccc1)c1ccccc1 [b25] = False
• NC(=S)NC(=O)Cc1ccc(-c2ccccc2)cc1 [b26] = False
• COc1cccc(CC(=O)NC(N)=S)c1 [b5] = True
• NC(=S)NC(=O)Cc1ccccc1Br [b15] = True

Ask | Quick check, pIC50 >= 4? NC(=S)NC(=O)Cc1ccccc1Cl [b13]
Reply | True

Ask | Quick check, pIC50 >= 4? NC(=S)NC(=O)Cc1ccc(Cl)cc1Cl [b21]
Reply | True

* * *

Reported log10 of koff by item:
Target: Jack bean urease (Canavalia ensiformis)
Construct: purchased
Test: Ligand affinity by surface plasmon resonance (SPR)
Assay type: binding
Settings: pH 7.4, SPR, immobilised urease, PBS pH 7.4
# log10 transformed; quantity=koff; unit=s⁻¹

• COc1ccc(CC(=O)NC(N)=S)cc1 = -1.42
• NC(=S)NC(=O)Cc1ccc(Cl)cc1 = -2.80
• NC(=S)NC(=O)Cc1ccc(O)cc1 = -2.53

// `NC(=S)NC(=O)Cc1ccc(F)cc1` : log10 of koff value = -1.51

// `NC(=S)NC(=O)Cc1ccc(O)c(O)c1` : log10 of koff value = -1.81

// `Cc1ccc(CC(=O)NC(N)=S)cc1` : log10 of koff value = -1.09

// `NC(=S)NC(=O)Cc1cccc(O)c1` : log10 of koff value = -1.41

* * *

Reported kon by item:
Molecular target: Jack bean urease (Canavalia ensiformis)
Construct: purchased
Test: Ligand affinity by surface plasmon resonance (SPR)
Assay type: binding
Conditions: pH 7.4
Give just the number in M⁻¹ s⁻¹; leave the unit off.

* NC(=S)NC(=O)Cc1ccc(Cl)cc1 [b19] | 3.82e+06

// Cc1ccc(CC(=O)NC(N)=S)cc1 [b16] : kon value = 501000

// COc1ccc(CC(=O)NC(N)=S)cc1 [b11] : kon value = 572000

// NC(=S)NC(=O)Cc1ccc(O)c(O)c1 [b29] : kon value = 19800

// NC(=S)NC(=O)Cc1ccc(F)cc1 [b23] : kon value = 54300

// NC(=S)NC(=O)Cc1ccc(O)cc1 [b8] : kon value = 9.38e+06

// NC(=S)NC(=O)Cc1cccc(O)c1 [b4] : kon value = 60800

* * *

Target: Jack bean urease (Canavalia ensiformis, UniProt P07374)
Construct: purchased
Sequence (P07374 whole entry, looked up): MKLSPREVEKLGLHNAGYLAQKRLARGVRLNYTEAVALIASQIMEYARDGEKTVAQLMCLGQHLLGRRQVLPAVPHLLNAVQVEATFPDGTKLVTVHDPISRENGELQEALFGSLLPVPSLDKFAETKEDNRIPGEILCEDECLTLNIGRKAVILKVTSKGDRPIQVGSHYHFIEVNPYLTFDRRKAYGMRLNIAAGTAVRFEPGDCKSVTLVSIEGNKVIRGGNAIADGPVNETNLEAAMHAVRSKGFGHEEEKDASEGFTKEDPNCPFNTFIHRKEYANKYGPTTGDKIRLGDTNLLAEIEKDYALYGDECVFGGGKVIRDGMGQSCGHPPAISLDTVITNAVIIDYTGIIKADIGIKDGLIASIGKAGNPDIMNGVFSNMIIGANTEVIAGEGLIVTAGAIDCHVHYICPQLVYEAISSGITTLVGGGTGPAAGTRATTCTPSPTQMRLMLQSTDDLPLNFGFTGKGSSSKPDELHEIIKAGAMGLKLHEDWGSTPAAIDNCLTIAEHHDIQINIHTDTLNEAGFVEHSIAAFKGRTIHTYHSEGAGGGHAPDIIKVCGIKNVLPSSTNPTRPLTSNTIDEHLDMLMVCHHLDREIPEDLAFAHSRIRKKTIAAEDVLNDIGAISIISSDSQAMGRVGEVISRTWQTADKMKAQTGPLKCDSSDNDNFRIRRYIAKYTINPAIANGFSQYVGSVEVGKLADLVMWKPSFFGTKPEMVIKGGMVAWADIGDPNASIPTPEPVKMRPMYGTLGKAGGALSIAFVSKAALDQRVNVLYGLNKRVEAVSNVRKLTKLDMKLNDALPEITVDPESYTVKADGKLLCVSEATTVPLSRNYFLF
Experiment: Enzyme kinetic study (indophenol method)
Assay type: biochemical
Conditions: dissociation constant of urease-urea-inhibitor complex
Returns: string. Value is 1 (yes) if measured Ki' is below 9 µM, and 0 (no) if it is greater than or equal to it.

- NC(=S)NC(=O)Cc1ccc(Cl)cc1: 1 (yes)
- COc1ccc(CC(=O)NC(N)=S)cc1: 0 (no)
- NC(=S)NC(=O)Cc1ccc(O)cc1: 0 (no)
- NC(=S)NC(=O)Cc1ccc(F)cc1: 0 (no)
- Cc1ccc(CC(=O)NC(N)=S)cc1: 1 (yes)

Ask | Does the reported Ki' of the following compound sit strictly below 9 µM? `NC(=S)NC(=O)Cc1cccc(O)c1`
Reply | 1 (yes)

Ask | Does the reported Ki' of the following compound sit strictly below 9 µM? `NC(=S)NC(=O)Cc1ccc(O)c(O)c1`
Reply | 0 (no)

* * *

Target: Jack bean urease (Canavalia ensiformis)
Construct: purchased
Test: Ligand affinity by surface plasmon resonance (SPR)
Type: binding
readout_label: Kd (nM)
Give just the number in nM; leave the unit off.

Kd of Cc1ccc(CC(=O)NC(N)=S)cc1 [b16] , assay on Jack bean urease (Canavalia ensiformis), is 162

Kd of NC(=S)NC(=O)Cc1cccc(O)c1 [b4] , assay on Jack bean urease (Canavalia ensiformis), is 644

Kd of NC(=S)NC(=O)Cc1ccc(O)c(O)c1 [b29] , assay on Jack bean urease (Canavalia ensiformis), is 783

Kd of NC(=S)NC(=O)Cc1ccc(Cl)cc1 [b19] , assay on Jack bean urease (Canavalia ensiformis), is 4.5

Kd of NC(=S)NC(=O)Cc1ccc(F)cc1 [b23] , assay on Jack bean urease (Canavalia ensiformis), is 569

Kd of COc1ccc(CC(=O)NC(N)=S)cc1 [b11] , assay on Jack bean urease (Canavalia ensiformis), is 667

Kd of NC(=S)NC(=O)Cc1ccc(O)cc1 [b8] , assay on Jack bean urease (Canavalia ensiformis), is 311

* * *

Reported melting point by item:

Here are 3 compounds together with their reported answers.
• NC(=S)NC(=O)Cc1ccccc1[N+](=O)[O-] [b20] = 177.6 to 178.4 °C
• NC(=S)NC(=O)Cc1ccc(O)cc1 [b8] = 177.1 to 178.3 °C
• Cc1ccccc1CC(=O)NC(N)=S [b18] = 135.6 to 137.1 °C

// NC(=S)NC(=O)Cc1ccc([N+](=O)[O-])cc1 [b22] : melting point value = 199.1 to 200.9 °C

// Cc1ccc(CC(=O)NC(N)=S)cc1 [b16] : melting point value = 171.2 to 172.5 °C

// NC(=S)NC(=O)C(c1ccccc1)c1ccccc1 [b25] : melting point value = 169.5 to 172.7 °C

// NC(=S)NC(=O)Cc1ccccc1F [b6] : melting point value = 157.2 to 159 °C

// NC(=S)NC(=O)Cc1ccc(Cl)c(Cl)c1 [b3] : melting point value = 202.1 to 203.4 °C

// COc1ccccc1CC(=O)NC(N)=S [b17] : melting point value = 135.4 to 136.9 °C

// NC(=S)NC(=O)Cc1ccc(Cl)cc1Cl [b21] : melting point value = 166.6 to 167.2 °C

// NC(=S)NC(=O)Cc1ccc(O)c(O)c1 [b29] : melting point value = 153.5 to 155 °C

// NC(=S)NC(=O)Cc1ccccc1Cl [b13] : melting point value = 148.8 to 151.2 °C

// NC(=S)NC(=O)Cc1cccc(O)c1 [b4] : melting point value = 160.3 to 161.5 °C

// NC(=S)NC(=O)Cc1ccc(Br)cc1 [b12] : melting point value = 174.9 to 176.2 °C

// NC(=S)NC(=O)Cc1ccc(F)cc1 [b23] : melting point value = 165.4 to 166.5 °C

// NC(=S)NC(=O)Cc1cccc(Br)c1 [b2] : melting point value = 207.4 to 208.8 °C

// NC(=S)NC(=O)Cc1ccc(-c2ccccc2)cc1 [b26] : melting point value = 187.3 to 189.6 °C

// COc1ccc(CC(=O)NC(N)=S)cc1OC [b10] : melting point value = 146.3 to 147.6 °C

// NC(=S)NC(=O)Cc1cccc(C(F)(F)F)c1 [b9] : melting point value = 204.3 to 205.8 °C

// NC(=S)NC(=O)Cc1cccc2ccccc12 [b27] : melting point value = 195.5 to 197.9 °C

// NC(=S)NC(=O)Cc1ccccc1Br [b15] : melting point value = 179 to 179.5 °C

// NC(=S)NC(=O)Cc1cccc(F)c1 [b14] : melting point value = 126 to 127.4 °C

The measurements presented in this section are drawn from paper PMC6968641.
